Entries and their pKd
biological target: T1, Recombinant soluble E protein (0.8E-His) from DENV-1 (DENV-1, UniProt P27909 281-675)
T1 construct: also called DENV-1 E protein; DV1
pKd: −log10 of the molar value.
Observation type: pKd

[
  {
    "Binder": "DG_3CH992-SG182/3CL119-SK1 (antibody, V domains shown) VH: QVQLVQSGAEVKKPGASVKVSCKASGYTFTSYYIHWVRQAPGQGLEWMGVINPRGGSRRSAQKFQGRVTMTRDTSTSTVYMELSSLRSEDTAVYYCARGGRALFYDSYTTPFDGGSWWFDPWGQGSLVTVSS VL: DIQLTQSPSSLSASVGDRVTFTCQASQEIRKYLNWYQQKPGKAPKLLIYDASNLKTGVPSRFSGSGSGTDFTFTISSLQPEDVATYYCQQFDDLPITFGQGTRLQIKR",
    "Readout number": 8.73
  },
  {
    "Binder": "DG_3CH1000-SG182/3CL668-SK1 (antibody, V domains shown) VH: QVQLVQSGPDVEKPGASVKVSCKASGYTFTSYYMHWVRQAPGQGLEWMGVINPRGGSRRSAQKFQGRITMTRDTSTSTVYMELSSLRSEDTAVYYCARGGRALFYDSYTTPFDGGSWWFDPWGQGSLVTVSS VL: DIQLTQSPSSLSASVGDRVTITCQASQDIRKYLNWYQQKPGKAPKLLIYDASNLKTGVPSRFSGSGSGTDFTLTISSLQPEDVATYYCQQFEDLPITFGQGTRLQIKR",
    "Readout number": 8.77
  },
  {
    "Binder": "DG_3CH992-SG182/3CL-SK1 (antibody, V domains shown) VH: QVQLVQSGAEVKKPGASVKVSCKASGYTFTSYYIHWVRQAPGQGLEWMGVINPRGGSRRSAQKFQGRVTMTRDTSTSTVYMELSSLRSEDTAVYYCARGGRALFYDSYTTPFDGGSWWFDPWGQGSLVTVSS VL: DIQLTQSPSSLSASVGDRVTFTCQASQDIRKYLNWYQQKPGKAPKLLIYDASNLKTGVPSRFSGSGSGTDFTFTISSLQPEDVATYYCQQFDDLPITFGQGTRLQIKR",
    "Readout number": 8.69
  },
  {
    "Binder": "DG_3CH1046-SG182/3CL012-SK1 (antibody, V domains shown) VH: QVQLVQSGAEVKKPGASVKVSCKASGYTFTSYYMHWVRQAPGQGLEWMGVINPRGGSRRSAQKFQGRVTMTRDTSTSTVYMELSSLRSEDTAVYYCARGGRALFYDSYTTPFDGGSWWFDPWGQGSLVTVSS VL: DIQLTQSPSSLSASVGDRVTFTCQASQDIRKYLNWYQQKPGKAPKLLIYDASNLKTGVPSRFSGSGSGTDFTFTISSLQPEDVATYYCQQFEDLPITFGQGTRLQIKR",
    "Readout number": 8.72
  },
  {
    "Binder": "DG_3CH953-SG182/3CL633-SK1 (antibody, V domains shown) VH: QVQLVQSGPDVEKPGASVKVSCKASGYTFTSNYIHWVRQAPGQGLEWMGVINPRGGSRRSAQKFQGRITMTRDTSTSTVYMELSSLRSEDTAVYYCARGGRALFYDSYTTPFDGGSWWFDPWGQGSLVTVSS VL: DIQLTQSPSSLSASVGDRVTITCQASQDIRKYLNWYQQKPGKAPKLLIYDASNLKTGVPSRFSGSGSGTDFTLTISSLQPEDVATYYCQQFDDLPITFGQGTRLQIKR",
    "Readout number": 8.78
  }
]
